Examples of compounds with documented EC50 follow.
# Test System: Human GLP-1 receptor (Homo sapiens, UniProt P43220)
# Construct: expressed in transfected cells
# Sequence (P43220 24-463): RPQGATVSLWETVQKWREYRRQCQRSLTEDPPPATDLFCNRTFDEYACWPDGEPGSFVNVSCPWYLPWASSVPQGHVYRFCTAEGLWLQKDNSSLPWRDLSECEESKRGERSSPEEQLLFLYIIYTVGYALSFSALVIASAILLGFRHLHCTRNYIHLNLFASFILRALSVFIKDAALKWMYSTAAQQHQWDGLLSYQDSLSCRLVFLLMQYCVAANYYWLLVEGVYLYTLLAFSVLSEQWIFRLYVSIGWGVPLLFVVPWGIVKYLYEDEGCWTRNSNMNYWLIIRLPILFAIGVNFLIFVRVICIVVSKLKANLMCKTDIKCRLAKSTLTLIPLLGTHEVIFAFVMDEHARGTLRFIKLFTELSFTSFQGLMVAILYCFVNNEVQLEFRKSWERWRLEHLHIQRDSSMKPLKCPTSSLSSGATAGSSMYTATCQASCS
# Procedure Summary: Measurement of GLP-1 receptor agonist activity (cAMP assay)
# Type: cell-based
# Assay Setup: hGLP-1R/CHO-K1 cells, cAMP increase, 37° C. 1 hour

| Compound | Value Unit | EC50 |
| --- | --- | --- |
| C[C@H]1c2cc(OCc3c(F)cc(F)cc3F)c(C(F)(F)F)cc2CCN1Cc1nc2ccc(C(=O)O)nc2n1C[C@@H]1CCO1 [Compound I-188] | nM | 1.79 |
| O=C(O)c1ccc2nc(Cc3ccc4nc(C(F)(F)F)c(OCc5ccc(Cl)cc5F)nc4c3)n(C[C@@H]3CCO3)c2c1 [Compound I-076] | nM | 1.59 |
| N#CCC1(Cn2c(CN3CCc4cc(C(F)(F)F)c(OCc5ccc(Cl)cc5F)cc4C3)nc3ccc(C(=O)O)cc32)CC1 [Compound I-041] | nM | 45.2 |
| O=C(O)c1ccc2nc(CN3CCc4cc(C(F)(F)F)c(OCc5ccc(Cl)cc5)cc4C3)n(C[C@@H]3CCO3)c2c1 [Compound I-080] | nM | 3.89 |
| C[C@H]1c2cc(OCc3ccc(Cl)cn3)c(C(F)(F)F)cc2CCN1Cc1nc2ccc(C(=O)O)nc2n1C[C@@H]1CCO1 [Compound I-176] | nM | 2.12 |

* * *

# Test System: Human GLP-1 receptor (Homo sapiens)
# Construct: expressed in transfected cells
# Procedure Summary: Measurement of GLP-1 receptor agonist activity (cAMP assay)
# Type: cell-based
# Assay Setup: CHO-K1, hGLP-1R/CHO-K1 cells, cAMP; 100% = human GLP-1 (7-36) at 2 nM, 0% = DMSO only; read-out: Emax(%)
# Method: Test Example 1: (Measurement of GLP-1 Receptor Agonist Activity) Human GLP-1 receptor stably expressing cells (hGLP-1R/CHO-K1 cells) are cultured in an α-MEM medium (Sigma) containing 10% FBS (Hyclone), 2% GlutaMAX (Gibco), 1% G418 (Nacalai Tesque), and 1% Penicillin-Streptomycin Mixed Solution (Sigma) at 37° C. under 5% CO2 conditions, and recovered by treating a 10 fold diluted 5.0 g/l-trypsin/5.3 mmol/l-EDTA solution (Nacalai Tesque) and cryopreserved. […]
Reported Emax values follow for various compounds

| Record Smiles | Emax |
| --- | --- |
| O=C(O)c1ccc2nc(CN3CCc4cc(C(F)(F)F)c(OCc5ccc(Cl)cc5F)cc4C3)n(CC3(CF)CC3)c2c1 | 109% |
| C[C@H]1c2nc(OCc3ccc(F)cc3Cl)c(C(F)(F)F)cc2CCN1Cc1nc2ccc(C(=O)O)cc2n1C[C@@H]1CCO1 | 110% |
| C[C@H]1c2nc(OCc3ccc(Cl)cc3F)c(C(F)(F)F)cc2CCN1Cc1nc2ccc(C(=O)O)c(F)c2n1C[C@@H]1CCO1 | 118% |

* * *

Catalogue of compounds with associated Emax
# Test System: Human GLP-1 receptor (Homo sapiens)
# Construct: expressed in transfected cells
# Procedure Summary: Measurement of GLP-1 receptor agonist activity (cAMP assay)
# Type: cell-based
# Assay Setup: CHO-K1, maximum effect, cAMP increase in GLP-1 R/CHO-K1 cells; 2 nM human GLP-1 (7-36) = 100%, DMSO only = 0%; read-out: Emax
Endpoint Name: Emax (%)

| Compound | Endpoint Name | Endpoint Result |
| --- | --- | --- |
| C[C@H]1c2nc(OCc3ccc(Cl)cc3F)c(Cl)cc2CCN1Cc1nc2ccc(C(=O)O)cc2n1C[C@@H]1CCO1 [Compound I-276] | Emax | 114 |
| C[C@H]1c2nc(OCc3ccc(F)cc3)c(C(F)(F)F)cc2CCN1Cc1nc2ccc(C(=O)O)nc2n1C[C@@H]1CCO1 [Compound I-290] | Emax | 118 |
| COc1cc(Cl)ccc1COc1cc2c(cc1C(F)(F)F)CCN(Cc1nc3c(OC)cc(C(=O)O)cc3n1C[C@@H]1CCO1)[C@H]2C [Compound I-229] | Emax | 105 |
| C[C@H]1c2nc(OCc3c(F)cc(Cl)cc3F)c(C(F)(F)F)cc2CCN1Cc1nc2ccc(C(=O)O)c(F)c2n1C[C@@H]1CCO1 [Compound I-362] | Emax | 133 |
| COc1cc(C(=O)O)cc2c1nc(CN1CCc3cc(C(F)(F)F)c(OCc4ccc(Cl)cc4Cl)nc3[C@@H]1C)n2C[C@@H]1CCO1 [Compound I-377] | Emax | 126 |
| COc1cc(C(=O)O)cc2c1nc(CN1CCc3cc(C(F)(F)F)c(OCc4ccc(Cl)cc4)nc3[C@@H]1C)n2C[C@@H]1CCO1 [Compound I-374] | Emax | 100 |
| O=C(O)c1ccc2nc(CN3CCc4cc(C(F)(F)F)c(OCc5ccc(C6CC6)cc5)nc4C3)n(C[C@@H]3CCO3)c2c1 [Compound I-266] | Emax | 111 |
| COc1cc(C(=O)O)cc2c1nc(CN1CCc3cc(C(F)(F)F)c(OCc4ccc(F)cc4F)cc3[C@@H]1C)n2C[C@@H]1CCO1 [Compound I-231] | Emax | 106 |
| C[C@H]1c2nc(OCc3ccc(F)cc3F)c(C(F)(F)F)cc2CCN1Cc1nc2c(F)cc(C(=O)O)cc2n1C[C@@H]1CCO1 [Compound I-369] | Emax | 112 |
| C[C@H]1c2nc(OCc3ccc(F)cc3F)c(C(F)(F)F)cc2CCN1Cc1nc2ccc(C(=O)O)cc2n1C[C@@H]1CCO1 [Compound I-254] | Emax | 126 |
| C[C@H]1c2nc(OCc3ccc(Cl)cc3F)c(C(F)F)cc2CCN1Cc1nc2ccc(C(=O)O)cc2n1C[C@@H]1CCO1 [Compound I-394] | Emax | 108 |
| Cc1ccc(COc2cc3c(cc2Cl)CCN(Cc2nc4c(F)cc(C(=O)O)cc4n2C[C@@H]2CCO2)[C@H]3C)cc1 [Compound I-330] | Emax | 93 |
| C[C@H]1c2cc(OCc3ccc(Cl)cc3F)c(Cl)cc2CCN1Cc1nc2c(F)cc(C(=O)O)cc2n1C[C@@H]1CCO1 [Compound I-336] | Emax | 100 |
| C[C@H]1c2nc(OCc3ccc(F)cc3)c(C(F)(F)F)cc2CCN1Cc1nc2c(F)cc(C(=O)O)cc2n1C[C@@H]1CCO1 [Compound I-307] | Emax | 115 |
| O=C(O)c1ccc2nc(CN3CCc4cc(C(F)(F)F)c(OCc5ccc(Cl)cc5Cl)nc4C3)n(C[C@@H]3CCO3)c2c1 [Compound I-269] | Emax | 109 |
| COc1cc(C(=O)O)cc2c1nc(CN1CCc3cc(C(F)(F)F)c(OCc4ccc(Cl)cc4)nc3C1)n2C[C@@H]1CCO1 [Compound I-386] | Emax | 112 |
| COc1cc(Cl)ccc1COc1cc2c(cc1Cl)CCN(Cc1nc3c(OC)cc(C(=O)O)cc3n1C[C@@H]1CCO1)[C@H]2C [Compound I-343] | Emax | 111 |
| COc1cc(C(=O)O)cc2c1nc(CN1CCc3cc(C(F)(F)F)c(OCc4c(F)cc(F)cc4F)nc3[C@@H]1C)n2C[C@@H]1CCO1 [Compound I-285] | Emax | 130 |
| COc1ccc(COc2nc3c(cc2C(F)(F)F)CCN(Cc2nc4ccc(C(=O)O)cc4n2C[C@@H]2CCO2)C3)cc1 [Compound I-262] | Emax | 109 |
| C[C@H]1c2nc(OCc3c(F)cc(F)cc3F)c(C(F)(F)F)cc2CCN1Cc1nc2ccc(C(=O)O)cc2n1C[C@@H]1CCO1 [Compound I-260] | Emax | 115 |
| C[C@H]1c2nc(OCc3c(F)cc(Cl)cc3F)c(C(F)(F)F)cc2CCN1Cc1nc2c(F)cc(C(=O)O)cc2n1C[C@@H]1CCO1 [Compound I-372] | Emax | 117 |
| C[C@H]1c2nc(OCc3ccc(C4CC4)cc3)c(C(F)(F)F)cc2CCN1Cc1nc2c(F)cc(C(=O)O)cc2n1C[C@@H]1CCO1 [Compound I-366] | Emax | 114 |

Recorded values, source patent US20240217966A1.
